biological target: voltage-gated sodium channel (sheep brain synaptoneurosomes; isoform not stated); assay: inhibition of [3H]-BTX-B radioligand binding at […] C; set-up: species or system Ovis aries
pIC50: −log10 of the molar value.
measured_attribute: pIC50

INSERT INTO measurements (chemical_structure, assay_value) VALUES
  ('CCCCN(CCCC)CCNC(=O)c1ccc(N=[N+]=[N-])cc1', 5.48);
